The reported numbers originate from patent US6852673B2.

Parameter: GALAP rating. Scope: all listed entries.
Test system: Galium aparine (GALAP)
Experiment: Pre-emergence herbicidal evaluation, cleaver
Assay type: in vivo
Settings: dose 0.4 kg/ha
From the text: The pre-emergence herbicidal activity of the compounds of the present invention is exemplified by the following test in which the seeds of a variety of monocotyledonous and dicotyledonous plants are seperately mixed with potting soil and planted on top of approximately one inch of soil in separate pots. […]

smiles.entry: CC(Cl)=CCOc1cc(C)cc(Oc2cc(C(F)(F)F)nn2C)n1
target.or.system: Galium aparine (GALAP)
GALAP rating: 8 (8 - Approaching complete kill)

smiles.entry: COc1cc(OCC(F)(F)C(F)F)nc(Oc2cc(C(F)(F)F)nn2C)c1
target.or.system: Galium aparine (GALAP)
GALAP rating: 8 (8 - Approaching complete kill)

smiles.entry: Cc1cc(OC=CCC(F)(F)F)nc(Oc2cc(C(F)(F)F)nn2C)c1
target.or.system: Galium aparine (GALAP)
GALAP rating: 9 (9 - Complete kill)

smiles.entry: C=C(Cl)COc1cc(C)cc(Oc2cc(C(F)(F)F)nn2C)n1
target.or.system: Galium aparine (GALAP)
GALAP rating: 8 (8 - Approaching complete kill)

smiles.entry: Cc1cc(OCC(F)(F)C(F)(F)C(F)(F)C(F)F)nc(Oc2cc(C(F)(F)F)nn2C)c1
target.or.system: Galium aparine (GALAP)
GALAP rating: 8 (8 - Approaching complete kill)

smiles.entry: Cc1cc(OCC(F)(F)C(F)(F)F)nc(Oc2cc(C(F)(F)F)nn2C)c1
target.or.system: Galium aparine (GALAP)
GALAP rating: 2 (2 - Slight effect)

smiles.entry: Cc1cc(OC/C=C/C(F)(F)F)nc(Oc2cc(C(F)(F)F)nn2C)c1
target.or.system: Galium aparine (GALAP)
GALAP rating: 9 (9 - Complete kill)

smiles.entry: Cc1cc(OCC=C(Cl)Cl)nc(Oc2cc(C(F)(F)F)nn2C)c1
target.or.system: Galium aparine (GALAP)
GALAP rating: 9 (9 - Complete kill)

smiles.entry: Cc1cc(OCC(F)(F)C(F)F)nc(Oc2cc(C(F)(F)F)nn2C)c1
target.or.system: Galium aparine (GALAP)
GALAP rating: 8 (8 - Approaching complete kill)

---

Test system: Zea mays (ZEAMX)
Assay: Pre-emergence herbicidal evaluation, maize
Assay type: in vivo
Conditions: dose 0.013 kg/ha

compound: Cc1cc(OCC(F)(F)C(F)(F)F)nc(Oc2cc(C(F)(F)F)nn2C)c1 [Example 7]
ZEAMX rating: 0 (0 - No effect)
//
compound: COc1cc(OCC(F)(F)C(F)F)nc(Oc2cc(C(F)(F)F)nn2C)c1 [Example 4]
ZEAMX rating: 1 (1 - Trace effect)
//
compound: CC(Cl)=CCOc1cc(C)cc(Oc2cc(C(F)(F)F)nn2C)n1 [Example 11]
ZEAMX rating: 1 (1 - Trace effect)
